This collection of values is drawn from patent US8486697B2.

# assay_procedure: Cell viability assay (methylene blue) in HeLa cells
# Format: cell-based
# measurement_context: human, HeLa cells, QC concentrations used in the combinations, read-out: reduction in cell viability, QC alone
property_measured: cytotoxicity at 4 h

GET /value?item= CCN(CC)CCCC(C)Nc1c2ccc(Cl)cc2nc2ccc(OC)cc12 (stereo not shown) [QC, quinacrine] &field=cytotoxicity at 4 h returns < 50%
